method-description: In vivo pharmacokinetics in mouse pancreas, liver and kidney after i.p. bolus
details: mouse, liver, ip, 25 umol/kg; mice, 25 μmol/kg i.p.; read-out: tmax liver (converted)
endpoint-name: Tmax (min)
The figure you give is taken to be in min; do not add the unit.

INSERT INTO assay_data (compound, unit_spec, numeric_readout) VALUES
  ('COc1cc(C=CC(=O)NCc2cccc(CC(N)C(=O)O)c2)ccc1O (stereo not drawn) [derivative 1]', 'min', 10),
  ('COc1cc(/C=C/C(=O)Nc2cccc(C[C@H](N)C(=O)O)c2)ccc1O [derivative 2]', 'min', 10);

Record summary for COc1cc(C=CC(=O)O)ccc1O [ferulic acid, 4-hydroxy-3-methoxycinnamic acid] : reported Tmax = 10
